test system: MCF-7; experiment: MTT cancer cell proliferation assay, MCF-7; assay type: cell-based, human; conditions: Homo sapiens, MCF7, read-out: Antiproliferative effect MCF-7 (IC50)
measure.name: IC50 (µM)
# value in µM; strip the unit string

Task: GET /values?readout=IC50&item= C=C1C(=O)[C@]23[C@H](O)[C@H]1CC[C@H]2[C@]12C=CC(=O)C(C)(C)[C@H]1[C@H](O)[C@@]3(O)OC2
Output: 3.48

---

tested on: Panc-1; experiment: Cancer cell proliferation assay, Panc-1; type: cell-based; conditions: Homo sapiens, PANC-1; Table 2a; A-ring modified analogues; read-out: IC50 (μM) Panc-1
measure.name: IC50 (µM)
# value in µM; strip the unit string

{"columns": ["compound", "measurement.target", "result.number"],
 "data": [
  ["C=C1C(=O)[C@@]23[C@@H]4OC(C)(C)OC25OC[C@]2(C=CC(=O)C(C)(C)[C@H]2[C@@H]5O)[C@@H]3CC[C@@H]14 [CYD-6-86]", "Panc-1", 6.49]
]}

Task: GET /values?readout=IC50&item= C=C1C(=O)[C@@]23[C@@H]4OC(C)(C)OC25OC[C@]2(C=C[C@H](O)C(C)(C)[C@H]2[C@@H]5O)[C@@H]3CC[C@@H]14 [CYD-6-81]
Output: 5.24

Task: GET /values?readout=IC50&item= C=C1C(=O)[C@@]23[C@@H]4OC(C)(C)OC25OC[C@]2(C(=O)C(C=O)=CC(C)(C)[C@H]2[C@@H]5O)[C@@H]3CC[C@@H]14 [CYD-6-92]
Output: 5.35

Task: GET /values?readout=IC50&item= C=C1C(=O)[C@@]23[C@@H]4OC(C)(C)OC25OC[C@]2(C=CCC(C)(C)[C@H]2[C@@H]5O)[C@@H]3CC[C@@H]14 [CYD-6-75]
Output: 7.25

Task: GET /values?readout=IC50&item= C=C1C(=O)[C@@]23[C@@H]4OC(C)(C)OC25OC[C@]2(C(=O)C=CC(C)(C)[C@H]2[C@@H]5O)[C@@H]3CC[C@@H]14 [CYD-6-25]
Output: 7.93
